Source: patent US20250230247A1

# maps each entry to its delta
Target: T1, human Dectin-1 (biosensor tests of Tables 3, 4A and 9; construct not stated) (human, UniProt Q9BXN2 66-247, limits assumed);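 further: Single-point dissociation rate (koff) fit for each variant binding domain, expressed as change versus the parental clone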
T1 construct: also called hDectin-1
T1 sequence (looked up): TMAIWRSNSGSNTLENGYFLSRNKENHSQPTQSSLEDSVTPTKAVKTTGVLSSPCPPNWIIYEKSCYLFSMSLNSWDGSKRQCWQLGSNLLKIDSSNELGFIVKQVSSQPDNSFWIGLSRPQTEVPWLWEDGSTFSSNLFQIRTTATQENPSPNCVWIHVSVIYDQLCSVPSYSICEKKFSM
Assay: Octet
Give your result in % as a bare value.

Exercise: # lookup: delta of 2M24A.1.28 (Fab, V domains shown, Fab; also called 2M24.1.28) VH: QVQLVQSGAEVKKPGASVKVSCKSSGYTFTDYYIHWVRQAPGQGLEWMGWINPNSGDTNYAQKFQGRITMTRDTSISTAYLELSRLRSDDTAVFYCARNSGSYSFGYWGQGTLVTVSS VL: DIQMTQSPSSVSASVGDRVTITCRASQGISSWLAWYQQKPGKAPKLLIFGASSLQSGVPSRFSGSGSGTDFTLTVSSLQPEDFATYYCQQAYSFPATFGPGTKVDIE
Solution: 90

Exercise: Query 2M24A.1.23 (Fab, V domains shown, Fab; also called 2M24.1.23) VH: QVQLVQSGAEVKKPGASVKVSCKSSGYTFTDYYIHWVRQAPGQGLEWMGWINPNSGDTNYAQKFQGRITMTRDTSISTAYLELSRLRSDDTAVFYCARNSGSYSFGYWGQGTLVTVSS VL: DIQMTQSPSSVSASVGDRVTITCRASQGISSWLAWYQQKPGKAPKLLIFGASSLQSGVPSRFSGSGSGTDFTLTVSSLQPEDFATYYCAQAYSFPFTFGPGTKVDIE next
Solution: 18
